# target_under_test: IRAK1 (human)
# method_summary: radiometric filter-binding kinase assay, Kinase HotSpot
# settings: compound 0.5 µM; ATP 10 µM
measure_name: residual activity (%)
Only the number, expressed in %, is required.

Nc1ncnc2c1c(-c1ccc(Oc3ccccc3)cc1)cn2C1CCCC1: 110

stdin: Consider the compound shown here: O=C1Nc2ccc(Cl)cc2/C1=C/c1cc(Cl)c(O)c(Cl)c1 What is its recorded residual activity?
stdout: 95.4

stdin: Consider the compound shown here: CC(C)N(CCC(=O)c1ccc2ccccc2c1)Cc1ccccc1 What is its recorded residual activity?
stdout: 102

stdin: Consider the compound shown here: Cc1ccc(Nc2nccc(N(C)c3ccc4c(C)n(C)nc4c3)n2)cc1S(N)(=O)=O What is its recorded residual activity?
stdout: 97

stdin: Consider the compound shown here: CCCC(=O)Oc1ccc2[nH]c(C(=O)c3cc4ccccc4[nH]3)cc2c1 What is its recorded residual activity?
stdout: 90.5

stdin: Consider the compound shown here: CCC(=O)Nc1ccc2ncnc(Nc3cccc(Br)c3)c2c1 What is its recorded residual activity?
stdout: 92.7

* * *

# target_under_test: HIPK2 (human)
# method_summary: radiometric filter-binding kinase assay, Kinase HotSpot
# settings: compound 0.5 µM; ATP 10 µM
measure_name: residual activity (%)
Only the number, expressed in %, is required.

// known answers, use as guide
c1ccc(-c2n[nH]c3c2oc2ccccc23)cc1: 99.6
COc1ccc2c(c[n+](C)c3c4cc5c(cc4ccc23)OCO5)c1OC: 92.6
Nc1ccc2ncnc(NCCc3ccc(Oc4ccccc4)cc3)c2c1: 110
CCC(=O)Nc1ccc2ncnc(Nc3cccc(Br)c3)c2c1: 97
CC(=O)c1ccc(N2CCOCC2)cc1O: 106

stdin: Give residual activity (HIPK2 (human)) of the following molecule: c1ccc(-c2n[nH]cc2-c2ccnc3ccccc23)nc1
stdout: 91.3

* * *

Listing of recorded residual activity by entry.
# target_under_test: UniProt O43293
# Sequence (O43293 whole entry, looked up): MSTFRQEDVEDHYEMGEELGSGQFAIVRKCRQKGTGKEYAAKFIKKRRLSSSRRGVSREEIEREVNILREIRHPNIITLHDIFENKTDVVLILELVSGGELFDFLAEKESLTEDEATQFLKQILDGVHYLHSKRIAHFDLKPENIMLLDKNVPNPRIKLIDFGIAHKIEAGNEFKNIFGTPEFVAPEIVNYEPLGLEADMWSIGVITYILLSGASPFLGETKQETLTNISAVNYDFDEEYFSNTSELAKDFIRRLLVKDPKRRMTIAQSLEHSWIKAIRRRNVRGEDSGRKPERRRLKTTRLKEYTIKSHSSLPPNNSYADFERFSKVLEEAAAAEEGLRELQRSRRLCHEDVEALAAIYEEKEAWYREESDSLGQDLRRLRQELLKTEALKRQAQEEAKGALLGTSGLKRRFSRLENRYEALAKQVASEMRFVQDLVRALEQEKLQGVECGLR
# method_summary: radiometric filter-binding kinase assay, Kinase HotSpot
# settings: compound 0.5 µM; ATP 10 µM
Only the number, expressed in %, is required.

// known answers, use as guide
COc1ccc2c(c[n+](C)c3c4cc5c(cc4ccc23)OCO5)c1OC: 102
c1ccc(-c2n[nH]cc2-c2ccnc3ccccc23)nc1: 101
CC[n+]1c(/C=C/N(C)c2ccccc2)n(-c2ccccc2)c2ccc(-c3nc4ccccc4s3)cc21: 95.4
CCCC(=O)Oc1ccc2[nH]c(C(=O)c3cc4ccccc4[nH]3)cc2c1: 88.5
COc1ccc(COc2ccc(Cc3cnc(N)nc3N)cc2OC)cc1: 104

Would you kindly look at the next entry?
stdin: Consider the compound shown here: O=C1NC(=O)/C(=C/c2ccc3c(c2)OC(F)(F)O3)S1 What is its recorded residual activity?
stdout: 104

* * *

# target_under_test: EPHA3 (human) (UniProt P29320)
# Sequence (P29320 whole entry, looked up): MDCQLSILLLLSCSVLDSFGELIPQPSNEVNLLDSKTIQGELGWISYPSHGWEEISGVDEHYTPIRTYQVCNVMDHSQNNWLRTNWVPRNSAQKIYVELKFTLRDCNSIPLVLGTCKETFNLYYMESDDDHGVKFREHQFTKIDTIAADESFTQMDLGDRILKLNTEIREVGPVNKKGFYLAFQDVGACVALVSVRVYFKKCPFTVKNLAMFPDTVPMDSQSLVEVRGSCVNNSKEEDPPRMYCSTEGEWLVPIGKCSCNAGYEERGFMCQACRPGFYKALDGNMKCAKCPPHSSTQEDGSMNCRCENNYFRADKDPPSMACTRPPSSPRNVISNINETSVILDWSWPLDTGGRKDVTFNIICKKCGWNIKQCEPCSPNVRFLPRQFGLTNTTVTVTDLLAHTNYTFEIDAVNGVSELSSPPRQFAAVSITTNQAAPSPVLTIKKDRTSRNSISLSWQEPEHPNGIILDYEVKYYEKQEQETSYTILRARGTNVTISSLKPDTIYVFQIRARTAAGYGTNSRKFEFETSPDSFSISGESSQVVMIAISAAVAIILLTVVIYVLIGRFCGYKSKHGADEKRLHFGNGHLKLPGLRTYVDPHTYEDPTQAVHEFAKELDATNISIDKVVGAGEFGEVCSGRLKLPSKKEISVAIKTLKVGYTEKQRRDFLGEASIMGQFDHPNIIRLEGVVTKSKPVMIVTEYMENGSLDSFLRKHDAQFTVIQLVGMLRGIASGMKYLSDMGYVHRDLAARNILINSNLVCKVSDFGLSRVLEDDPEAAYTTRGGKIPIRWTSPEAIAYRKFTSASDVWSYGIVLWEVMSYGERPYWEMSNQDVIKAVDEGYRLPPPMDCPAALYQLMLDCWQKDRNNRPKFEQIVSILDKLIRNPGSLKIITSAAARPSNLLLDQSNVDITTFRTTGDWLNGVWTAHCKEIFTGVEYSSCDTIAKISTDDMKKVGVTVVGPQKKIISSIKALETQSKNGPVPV
# method_summary: radiometric filter-binding kinase assay, Kinase HotSpot
# settings: compound 0.5 µM; ATP 10 µM
Listing of recorded residual activity by entry.
Only the number, expressed in %, is required.

// known answers, use as guide
Cc1ccc(Nc2nccc(N(C)c3ccc4c(C)n(C)nc4c3)n2)cc1S(N)(=O)=O: 94.1
CNC(=O)c1cc(Oc2ccc(NC(=O)Nc3ccc(Cl)c(C(F)(F)F)c3)cc2)ccn1: 95.5
Oc1cccc(-c2nc(N3CCOCC3)c3oc4ncccc4c3n2)c1: 93.7
O=S(=O)(c1cccc2cnccc12)N1CCCNCC1: 105
CCCC(=O)Oc1ccc2[nH]c(C(=O)c3cc4ccccc4[nH]3)cc2c1: 96.8

stdin: Give residual activity (EPHA3 (human) (UniProt P29320)) of the following molecule: COc1ccc(COc2ccc(Cc3cnc(N)nc3N)cc2OC)cc1
stdout: 109

stdin: Give residual activity (EPHA3 (human) (UniProt P29320)) of the following molecule: O=C1NC(=O)/C(=C/c2ccc3c(c2)OC(F)(F)O3)S1
stdout: 97.6

stdin: Give residual activity (EPHA3 (human) (UniProt P29320)) of the following molecule: O=C1NC(=O)C(c2cn(CCCn3ccnc3)c3ccccc23)=C1Nc1ccccc1
stdout: 102

* * *

# target_under_test: UniProt O94804
# Sequence (O94804 whole entry, looked up): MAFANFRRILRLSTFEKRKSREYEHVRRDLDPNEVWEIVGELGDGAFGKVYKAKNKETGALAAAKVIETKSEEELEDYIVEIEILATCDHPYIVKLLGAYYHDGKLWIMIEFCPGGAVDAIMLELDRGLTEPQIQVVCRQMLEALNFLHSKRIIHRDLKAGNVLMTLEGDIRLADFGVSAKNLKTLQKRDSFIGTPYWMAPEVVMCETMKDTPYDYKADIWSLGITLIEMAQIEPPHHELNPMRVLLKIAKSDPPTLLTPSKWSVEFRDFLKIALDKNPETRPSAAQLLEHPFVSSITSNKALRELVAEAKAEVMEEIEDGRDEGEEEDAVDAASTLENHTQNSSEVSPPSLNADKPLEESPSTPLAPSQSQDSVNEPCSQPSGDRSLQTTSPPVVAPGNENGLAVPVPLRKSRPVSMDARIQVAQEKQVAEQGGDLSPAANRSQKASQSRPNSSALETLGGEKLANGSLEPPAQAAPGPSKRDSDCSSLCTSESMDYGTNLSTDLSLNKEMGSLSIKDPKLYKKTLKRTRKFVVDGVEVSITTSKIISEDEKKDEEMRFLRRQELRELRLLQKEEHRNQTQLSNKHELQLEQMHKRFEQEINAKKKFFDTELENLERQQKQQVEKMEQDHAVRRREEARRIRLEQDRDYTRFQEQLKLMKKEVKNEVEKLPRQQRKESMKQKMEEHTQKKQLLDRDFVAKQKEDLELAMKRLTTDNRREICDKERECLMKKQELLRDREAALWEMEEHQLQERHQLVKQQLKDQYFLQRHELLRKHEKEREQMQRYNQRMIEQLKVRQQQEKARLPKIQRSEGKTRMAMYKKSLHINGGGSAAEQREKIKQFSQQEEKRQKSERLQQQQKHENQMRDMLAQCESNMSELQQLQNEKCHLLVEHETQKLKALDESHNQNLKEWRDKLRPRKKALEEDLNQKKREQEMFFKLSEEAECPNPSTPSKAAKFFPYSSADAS
# method_summary: radiometric filter-binding kinase assay, Kinase HotSpot
# settings: compound 0.5 µM; ATP 10 µM
Listing of recorded residual activity by entry.
Only the number, expressed in %, is required.

// known answers, use as guide
O=C1NC(=O)C(c2cn(CCCn3ccnc3)c3ccccc23)=C1Nc1ccccc1: 11.5
CCOC(=O)c1c(C)[nH]c(/C=C2\C(=O)Nc3ccccc32)c1C: 82.2
O=C1Nc2ccc(Cl)cc2/C1=C/c1cc(Cl)c(O)c(Cl)c1: 77.1
N#CC(C#N)=C(N)/C(C#N)=C/c1ccc(O)cc1: 92.4
CO[C@H]1CC2CC[C@@H](C)[C@@](O)(O2)C(=O)C(=O)N2CCCC[C@H]2C(=O)OC([C@H](C)C[C@@H]2CC[C@@H](O)[C@H](OC)C2)CC(=O)[C@H](C)/C=C(\C)[C@@H](O)[C@@H](OC)C(=O)[C@H](C)C[C@H](C)/C=C/C=C/C=C/1C (some centres undefined): 97.7
Nc1ncnc2c1c(-c1ccc(Oc3ccccc3)cc1)cn2C1CCCC1: 73.1
O=S(=O)(c1cccc2cnccc12)N1CCCNCC1: 103
Nc1ccc2ncnc(NCCc3ccc(Oc4ccccc4)cc3)c2c1: 90.8

Would you kindly look at the next entry?
stdin: Consider the compound shown here: Cc1ccc(NC2=CC(=O)c3sc(C)nc3C2=O)cc1 What is its recorded residual activity?
stdout: 95

* * *

# target_under_test: UniProt P41743
# Sequence (P41743 whole entry, looked up): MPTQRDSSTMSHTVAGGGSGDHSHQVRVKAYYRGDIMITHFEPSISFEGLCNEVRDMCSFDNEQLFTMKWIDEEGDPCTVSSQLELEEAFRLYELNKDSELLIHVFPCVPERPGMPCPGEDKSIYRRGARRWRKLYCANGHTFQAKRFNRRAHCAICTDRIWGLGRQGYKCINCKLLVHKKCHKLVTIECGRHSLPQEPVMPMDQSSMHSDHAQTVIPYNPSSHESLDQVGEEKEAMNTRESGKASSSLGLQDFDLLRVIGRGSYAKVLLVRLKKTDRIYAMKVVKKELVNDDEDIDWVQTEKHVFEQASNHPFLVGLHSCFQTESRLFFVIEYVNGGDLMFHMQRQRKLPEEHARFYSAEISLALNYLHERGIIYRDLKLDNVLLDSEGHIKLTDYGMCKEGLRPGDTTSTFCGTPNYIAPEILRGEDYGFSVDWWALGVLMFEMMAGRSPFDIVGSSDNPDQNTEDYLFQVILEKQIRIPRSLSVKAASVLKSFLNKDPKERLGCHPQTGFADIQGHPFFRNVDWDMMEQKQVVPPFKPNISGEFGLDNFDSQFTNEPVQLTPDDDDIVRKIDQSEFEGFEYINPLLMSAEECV
# method_summary: radiometric filter-binding kinase assay, Kinase HotSpot
# settings: compound 0.5 µM; ATP 10 µM
measure_name: residual activity (%)
Only the number, expressed in %, is required.

// known answers, use as guide
COc1ccc2c(c[n+](C)c3c4cc5c(cc4ccc23)OCO5)c1OC: 98.3
Cc1ccc(Nc2nccc(N(C)c3ccc4c(C)n(C)nc4c3)n2)cc1S(N)(=O)=O: 96.1
CCN(CC)CCNC(=O)c1c(C)[nH]c(/C=C2\C(=O)Nc3ccc(F)cc32)c1C: 103
CC(=O)c1ccc(N2CCOCC2)cc1O: 96.3
O=C1Nc2ccc(Cl)cc2/C1=C/c1cc(Cl)c(O)c(Cl)c1: 94.1
Cc1ccc(S(=O)(=O)/C=C/C#N)cc1: 90.3
Nc1cccc(-c2cc3c(Oc4cccc(O)c4)ncnc3[nH]2)c1: 84.6
Oc1cccc(-c2nc(N3CCOCC3)c3oc4ncccc4c3n2)c1: 94.9
O=C1NC(=O)c2c1c1c3ccccc3n3c1c1c2c2ccccc2n1C1CCC3O1: 86.4
CCN(CC)CCNC(=O)c1c(C)[nH]c(/C=C2\C(=O)Nc3ccc(Cl)cc32)c1C: 91.9

stdin: Consider the compound shown here: CO[C@H]1CC2CC[C@@H](C)[C@@](O)(O2)C(=O)C(=O)N2CCCC[C@H]2C(=O)OC([C@H](C)C[C@@H]2CC[C@@H](O)[C@H](OC)C2)CC(=O)[C@H](C)/C=C(\C)[C@@H](O)[C@@H](OC)C(=O)[C@H](C)C[C@H](C)/C=C/C=C/C=C/1C (stereo not given in full) What is its recorded residual activity?
stdout: 99.1

stdin: Consider the compound shown here: CCCC(=O)Oc1ccc2[nH]c(C(=O)c3cc4ccccc4[nH]3)cc2c1 What is its recorded residual activity?
stdout: 99.2

stdin: Consider the compound shown here: COc1cc2ncnc(Nc3cccc(Cl)c3)c2cc1OC What is its recorded residual activity?
stdout: 97.5

stdin: Consider the compound shown here: CNc1cc2c(Nc3cccc(Br)c3)ncnc2cn1 What is its recorded residual activity?
stdout: 96.4

stdin: Consider the compound shown here: c1ccc(-c2n[nH]c3c2oc2ccccc23)cc1 What is its recorded residual activity?
stdout: 85.9

* * *

# target_under_test: TGFBR2 (human) (UniProt P37173)
# Sequence (P37173 whole entry, looked up): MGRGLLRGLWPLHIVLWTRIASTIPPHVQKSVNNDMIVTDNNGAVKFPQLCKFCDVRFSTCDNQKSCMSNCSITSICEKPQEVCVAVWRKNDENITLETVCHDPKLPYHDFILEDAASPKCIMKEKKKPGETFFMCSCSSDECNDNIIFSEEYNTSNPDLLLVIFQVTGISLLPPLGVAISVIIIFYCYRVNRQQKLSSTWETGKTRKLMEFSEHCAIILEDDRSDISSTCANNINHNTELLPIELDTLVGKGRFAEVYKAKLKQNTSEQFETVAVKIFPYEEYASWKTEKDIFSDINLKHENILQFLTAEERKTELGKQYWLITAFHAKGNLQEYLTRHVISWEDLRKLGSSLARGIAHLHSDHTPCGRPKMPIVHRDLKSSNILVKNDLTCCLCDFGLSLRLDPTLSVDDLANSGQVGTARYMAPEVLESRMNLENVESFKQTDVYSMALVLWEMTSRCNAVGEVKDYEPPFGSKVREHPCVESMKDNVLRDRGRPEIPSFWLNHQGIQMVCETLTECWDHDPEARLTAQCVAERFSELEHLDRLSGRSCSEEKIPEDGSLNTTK
# method_summary: radiometric filter-binding kinase assay, Kinase HotSpot
# settings: compound 0.5 µM; ATP 10 µM
measure_name: residual activity (%)
Only the number, expressed in %, is required.

COc1ccc(COc2ccc(Cc3cnc(N)nc3N)cc2OC)cc1: 127
c1ccc(-c2n[nH]cc2-c2ccnc3ccccc23)nc1: 109
CCN(CC)CCNC(=O)c1c(C)[nH]c(/C=C2\C(=O)Nc3ccc(F)cc32)c1C: 92.5
Cc1ccc(NC2=CC(=O)c3sc(C)nc3C2=O)cc1: 77.6
O=C1Nc2ccc(Cl)cc2/C1=C/c1cc(Cl)c(O)c(Cl)c1: 94.9
O=C1NC(=O)/C(=C/c2ccc3c(c2)OC(F)(F)O3)S1: 107
Nc1ncnc2[nH]nc(Nc3ccc(F)cc3)c12: 101
COc1cc2ncnc(Nc3cccc(Cl)c3)c2cc1OC: 94.5

stdin: Give residual activity (TGFBR2 (human) (UniProt P37173)) of the following molecule: Cc1ccc(Nc2nccc(N(C)c3ccc4c(C)n(C)nc4c3)n2)cc1S(N)(=O)=O
stdout: 100

stdin: Give residual activity (TGFBR2 (human) (UniProt P37173)) of the following molecule: Nc1ccc2ncnc(NCCc3ccc(Oc4ccccc4)cc3)c2c1
stdout: 110

stdin: Give residual activity (TGFBR2 (human) (UniProt P37173)) of the following molecule: Cc1ccc(S(=O)(=O)/C=C/C#N)cc1
stdout: 97.9
